tested on: HOP-92 NSCLC; assay: NCI tumour cell line growth inhibition, 48 h

{"columns": ["compound", "target_or_system", "TGI"],
 "data": [
  ["CCOC(=O)C1=C(C)NC(=S)NC1c1ccccc1 (stereo unspecified)", "HOP-92 NSCLC", "> 100 µM"],
  ["Cc1cc(I)cc(CN(C)CCCCN2CCCCC2)c1O", "HOP-92 NSCLC", "38.2 µM"],
  ["O=C1/C(=C/c2ccc(O)cc2)CC/C1=C\\c1ccc(O)cc1", "HOP-92 NSCLC", "> 100 µM"],
  ["CC[C@@]1(O)C(=O)OCc2c1cc1n(c2=O)Cc2c-1nc1ccccc1c2/C=N\\NC(=O)CN", "HOP-92 NSCLC", "21.8 µM"],
  ["C#Cc1ccc(-n2c(/C=C/c3ccc(C(F)(F)F)cc3)nc3ncccc3c2=O)cc1", "HOP-92 NSCLC", "3.44 µM"],
  ["O=C(O)CSc1ccc([N+](=O)[O-])cc1[N+](=O)[O-]", "HOP-92 NSCLC", "> 100 µM"],
  ["O=S1(=O)NC(=NCc2c[nH]c3ccccc23)N(c2ccccc2)c2ccncc21", "HOP-92 NSCLC", "> 100 µM"],
  ["CCOc1ccc(NC(=O)C(=O)CC(=O)c2c[n+](=O)c3cc(C)c(C)cc3n2[O-])cc1", "HOP-92 NSCLC", "> 100 µM"],
  ["O=C1OCC(O)=C1C(c1ccc(Cl)cc1)c1cc2c(cc1O)OCO2 (stereo unspecified)", "HOP-92 NSCLC", "> 100 µM"],
  ["O=C(O)CN(CC(=O)O)C1CCCCC1N(CC(=O)O)CC(=O)NCCN=C=S (stereo unspecified)", "HOP-92 NSCLC", "> 100 µM"],
  ["CN(C)C(=N)c1ccccc1", "HOP-92 NSCLC", "> 100 µM"]
]}

Provenance of the data: PubChem BioAssay (NCI)
